Assay: Toxicity liver stage against HepG2, at 10uM
Type: cell-based
Parameters: test concentration 10 uM, cell line HepG2-A16-CD81EGFP
Details: human, HepG2-A16-CD81EGFP cells; read-out: INHIBITION
Examples of compounds with documented cytotoxicity at 10 µM follow.
Note: unit % is implicit; provide only the numeric part.

The cases that follow already have their cytotoxicity at 10 µM on record.
- CNC(=O)C1(CCCc2ccncc2)CCCCN1 (stereo unspecified): -37.5
- Cn1cc(CN2CCc3nc(-c4ccccn4)nc(O)c3C2)cn1: -3.81

Please give the measured cytotoxicity at 10 µM for this compound: CCN1CC2(CCC1=O)CCN(C(=O)c1ccc(C)cc1O)CC2
-0.0198

If you can, please state the reported cytotoxicity at 10 µM value of CC(C)N(C)S(=O)(=O)c1ccc2c(c1)CCN(C(=O)c1cccnn1)C2 .
-1.22

###

Item-by-item account of cytotoxicity at 10 µM
Assay: Toxicity liver stage against HepG2, at 10uM
Type: cell-based
Set-up: test concentration 10 uM, cell line HepG2-A16-CD81EGFP
Details: human, HepG2-A16-CD81EGFP cells; read-out: INHIBITION
Lab note: write values as number then unit, every time.

Below are worked cases with known answers.
• O=C1CC(NS(=O)(=O)N2CCOCC2)CN1Cc1ccccc1 (stereo not drawn) = 4.19%
• Cc1ccc(NC2(C(=O)NCc3c(C)n[nH]c3C)CCCC2)cc1 = 3.73%
• CC(=O)N1CCCN(C(=O)CN(C)c2ccc(Cl)cn2)CC1 = -7.64%

Form field: reported cytotoxicity at 10 µM of Cc1cccc(N2CCOCC3(C2)CN(c2cccnc2)C(=O)CO3)n1 (stereo not drawn)
-4.96%

What measured cytotoxicity at 10 µM goes with CC(C)C(=O)N1CCC2(CC1)[C@@H]1CN(C(=O)N(C)C)C[C@@H]1C(=O)N2C ?
1.76%

cytotoxicity at 10 µM lookup needed for O=C(CCn1ccc(=O)[nH]c1=O)N1CCC(OCc2cccnc2)CC1 , thanks.
-15.7%

May I ask what cytotoxicity at 10 µM has been recorded for Cc1ccc(CN2CCS(=O)(=O)C(C)(C)C2)cc1C ?
1.05%

Give the measured cytotoxicity at 10 µM of CC1Oc2ccc(S(=O)(=O)NCCCn3ccnc3)cc2NC1=O (stereo not drawn) .
7.88%

Look up cytotoxicity at 10 µM: O=C(Cn1cc(Cl)cn1)Nc1ccc2c(c1)OCCCO2
4.98%

cytotoxicity at 10 µM lookup needed for CN(C)CC1CN(C(=O)NCc2ccccc2)Cc2nccn2C1 (stereo not drawn) , thanks.
-3.91%

I am curious: what cytotoxicity at 10 µM value has been reported for Cc1ccc(S(=O)(=O)CCC(=O)N(C)Cc2cnn(C)c2)cc1 ?
-2.9%

What cytotoxicity at 10 µM value was documented for this compound, CCNS(=O)(=O)c1ccc(C)c(C(=O)N(C)Cc2ccco2)c1 ?
0.685%

What does the data say about its cytotoxicity at 10 µM? Entry: CNC(=O)CN1CCOCC2(CCCN(Cc3ccc(F)cc3)C2)C1 (stereo not drawn)
6.88%

Would you mind telling me what cytotoxicity at 10 µM value was observed for COc1cc(NC(=O)N(C)C(C2CC2)C2CC2)ncn1 ?
-6.69%

Given the entry O=C(NC1CC1)N1CCc2ccc(=O)n(Cc3ccncc3)c2CC1 , report its measured cytotoxicity at 10 µM.
-0.972%

Field request: cytotoxicity at 10 µM | item: CC(C)[C@@H]1CN(Cc2ccsc2)C[C@H]1NS(=O)(=O)N(C)C
-23.5%

Give its cytotoxicity at 10 µM value. Item: COCC(=O)N1C[C@@H](c2cc(O)nc(C)n2)[C@H](c2ccccc2F)C1
5.62%

Report cytotoxicity at 10 µM for CC(C)NC(=O)NCC1(COc2cnccn2)C[C@@H](O)[C@@H](O)C1 (stereo partly drawn) please.
-9.85%

Dear colleague, I am looking for the recorded cytotoxicity at 10 µM of the following compound: Cc1cccc(CN2CCc3[nH]nc(C(=O)N4CCOCC4)c3C2)n1
6.31%

What measured cytotoxicity at 10 µM goes with Cc1ncc2c(n1)CN(C=C1NN=C(c3occc3C)O1)CC2 ?
-2.7%

Which cytotoxicity at 10 µM is listed for Cc1nnc(-c2ccc(C(=O)Nc3ccnc(N(C)C)n3)cc2)o1 ?
-1.01%

Record request: cytotoxicity at 10 µM value, item C[C@@H]1CN(C(=O)CSc2nncn2C)C[C@@]1(O)C1CC1
-15.7%

Find the recorded cytotoxicity at 10 µM belonging to COc1ccccc1OCc1cc(C(=O)N2CCC(C(C)O)CC2)n[nH]1 (stereo not drawn) and report it.
0.127%

###

Experiment: Toxicity liver stage against HepG2, at 10uM
Assay type: cell-based
Design: test concentration 10 uM, cell line HepG2-A16-CD81EGFP
Conditions: human, HepG2-A16-CD81EGFP cells; read-out: INHIBITION
Endpoint label: cytotoxicity at 10 µM
Just so you know, I need the unit written after the number.

Below, each entry is followed by its recorded cytotoxicity at 10 µM result.
* O=C(CCCOc1ccccc1F)NCCCC(=O)Nc1cn[nH]c1 | -11.1%
* CC[C@H]1N(Cc2ccco2)CCC[C@]12CCC(=O)N2C | 4.23%
* O=C(NC1CCOCC1)c1cccc(C2CCCNC2)c1 (configuration not stated) | 2.58%
* CSc1ncccc1C(=O)N1CCCC1c1ccc(C(=O)N(C)C)s1 (configuration not stated) | 6.45%

Give the measured cytotoxicity at 10 µM of CC(=O)N1CCC1c1nc(-c2ccc(C)s2)no1 (configuration not stated) .
-1.78%

Reported cytotoxicity at 10 µM for CN1CCN(C[C@H]2CN3CC[C@H]2C[C@@H]3CNC(=O)c2ccco2)CC1 : what is it?
-6.35%

###

Below, each entry is listed with its recorded cytotoxicity at 10 µM.
Assay: Toxicity liver stage against HepG2, at 10uM
Assay type: cell-based
Set-up: test concentration 10 uM, cell line HepG2-A16-CD81EGFP
Conditions: human, HepG2-A16-CD81EGFP cells; read-out: INHIBITION
Just the number in %, nothing appended.

Some solved entries appear below for comparison.
• CC(C)c1nc(CN2CCCN(c3nccs3)CC2)no1 = -11.5
• COc1ncc(-c2cc(NC3CCCC3)nc3[nH]ccc23)c(OC)n1 = 16.3
• Cc1nccn1C1CCCN(C(=O)c2ccc3c(c2)OCCCO3)C1 (configuration not stated) = -12.9
• CS(=O)(=O)c1ccc(C(=O)NCc2nc3cc(F)ccc3[nH]2)cc1 = -3.34
• CC(=O)NCc1ccc(-c2ccccc2C(=O)O)cn1 = 1
• COc1cc(CNCC(O)c2cccc(F)c2)cc2c1OCO2 (configuration not stated) = -6.31

Give its cytotoxicity at 10 µM value. Item: CN(CC1CCCCO1)c1nncc(-c2cccc(F)c2)n1 (configuration not stated)
8.01

Given CCc1nc(CN2CCCC(Nc3ncnc4ccsc34)C2)no1 (configuration not stated) , state its recorded cytotoxicity at 10 µM.
52.2

What value of measured cytotoxicity at 10 µM is listed for CC(C(=O)NCCCN1CCOCC1)n1cncn1 (configuration not stated) ?
1.4

What value of measured cytotoxicity at 10 µM is listed for O=C(C1CC1)N1CCc2nc(C3CCN(C(=O)C4CC4)C3)nc(O)c2C1 (configuration not stated) ?
-20.9

Which cytotoxicity at 10 µM value belongs to Cc1nn(C)cc1-c1ccnc(N(C)Cc2noc(C(C)C)n2)n1 ?
1.41

For CCN1CCOC(CNCc2ccccc2OCC(=O)N(C)C)C1 (configuration not stated) , what is its reported cytotoxicity at 10 µM?
-15.4

###

Assay: Toxicity liver stage against HepG2, at 10uM
Type: cell-based
Set-up: test concentration 10 uM, cell line HepG2-A16-CD81EGFP
Settings: human, HepG2-A16-CD81EGFP cells; read-out: INHIBITION
Measured cytotoxicity at 10 µM, listed per entry for reference.
Express the result in % but write the number alone.

Below: 4 molecules and their reported cytotoxicity at 10 µM.
- O=c1[nH]c2c(c(=O)n1C1CCCCC1)CCC2Nc1ccc(Cl)cc1 (configuration not stated): 9.78
- CC(CNC(=O)c1cccnc1Oc1cccnc1)N(C)C (configuration not stated): -14
- CC1=NN(c2ccc(C(=O)N3CCCC(n4ccnc4)C3)cc2)CC1 (configuration not stated): -15.6
- Fc1ccc(NCc2nnsc2Cl)c(OC(F)F)c1: 0.811

Let us examine a further case.
Requested read-out: cytotoxicity at 10 µM. Entry: c1ccc(-c2nc(CCNCc3ccccn3)co2)cc1
-1.89

###

cytotoxicity at 10 µM by entry:
Assay: Toxicity liver stage against HepG2, at 10uM
Format: cell-based
Design: test concentration 10 uM, cell line HepG2-A16-CD81EGFP
Settings: human, HepG2-A16-CD81EGFP cells; read-out: INHIBITION
Kindly answer with a numeric value in %, unit omitted.

In the examples that follow, each entry is paired with its recorded cytotoxicity at 10 µM.
• O=C(Cc1csc(N2CCNC2=O)n1)NC(c1ccccc1)C1CC1 (stereo not drawn) = -136
• CC(c1ccco1)N(C(=O)Cn1nc2n(c1=O)CCCCC2)C1CC1 (stereo not drawn) = -6.17
• O=C(NCC(=O)N1CCCCC1)c1ccoc1 = -6.07
• CCC(CO)N(Cc1ccsc1)CC1CC1 (stereo not drawn) = 11.5
• CN1CCOC(CNC(=O)COc2ccc(F)cc2F)C1 (stereo not drawn) = -5.51
• Cc1n[nH]cc1CNCC1(c2ccc3c(c2)OCO3)CCOCC1 = 7.73
• FC(F)(F)c1cc(C2CCCN(Cc3cccnc3)C2)n[nH]1 (stereo not drawn) = -45.7
• N[C@H]1CN(C(=O)CCc2cc(Cl)no2)C[C@@H]1c1ccccc1 = -7.03
• O=C(Nc1nccs1)NC1CCN(Cc2ccccn2)CC1 = -5.72
• CN(C)c1ccc(-c2ccnc3c2ccn3C)nn1 = 10.9

Looking for the measured cytotoxicity at 10 µM of Cc1ccccc1CC(=O)N[C@@H]1CCC[C@@H](N2CCNC(=O)C2)[C@@H]1O , can you help?
-24.5

Which measured cytotoxicity at 10 µM value corresponds to O=C(Nc1ccccc1F)N(CCO)CCOCC(F)(F)F ?
1.1

Please report the recorded cytotoxicity at 10 µM for Cc1nn(C)c2nc(NC(C)c3nnn[nH]3)sc12 (stereo not drawn) .
-0.909
